Biological target: SMARCA4 (Homo sapiens, UniProt P51532)
Construct: endogenous in cells
Sequence (P51532 whole entry, species assumed): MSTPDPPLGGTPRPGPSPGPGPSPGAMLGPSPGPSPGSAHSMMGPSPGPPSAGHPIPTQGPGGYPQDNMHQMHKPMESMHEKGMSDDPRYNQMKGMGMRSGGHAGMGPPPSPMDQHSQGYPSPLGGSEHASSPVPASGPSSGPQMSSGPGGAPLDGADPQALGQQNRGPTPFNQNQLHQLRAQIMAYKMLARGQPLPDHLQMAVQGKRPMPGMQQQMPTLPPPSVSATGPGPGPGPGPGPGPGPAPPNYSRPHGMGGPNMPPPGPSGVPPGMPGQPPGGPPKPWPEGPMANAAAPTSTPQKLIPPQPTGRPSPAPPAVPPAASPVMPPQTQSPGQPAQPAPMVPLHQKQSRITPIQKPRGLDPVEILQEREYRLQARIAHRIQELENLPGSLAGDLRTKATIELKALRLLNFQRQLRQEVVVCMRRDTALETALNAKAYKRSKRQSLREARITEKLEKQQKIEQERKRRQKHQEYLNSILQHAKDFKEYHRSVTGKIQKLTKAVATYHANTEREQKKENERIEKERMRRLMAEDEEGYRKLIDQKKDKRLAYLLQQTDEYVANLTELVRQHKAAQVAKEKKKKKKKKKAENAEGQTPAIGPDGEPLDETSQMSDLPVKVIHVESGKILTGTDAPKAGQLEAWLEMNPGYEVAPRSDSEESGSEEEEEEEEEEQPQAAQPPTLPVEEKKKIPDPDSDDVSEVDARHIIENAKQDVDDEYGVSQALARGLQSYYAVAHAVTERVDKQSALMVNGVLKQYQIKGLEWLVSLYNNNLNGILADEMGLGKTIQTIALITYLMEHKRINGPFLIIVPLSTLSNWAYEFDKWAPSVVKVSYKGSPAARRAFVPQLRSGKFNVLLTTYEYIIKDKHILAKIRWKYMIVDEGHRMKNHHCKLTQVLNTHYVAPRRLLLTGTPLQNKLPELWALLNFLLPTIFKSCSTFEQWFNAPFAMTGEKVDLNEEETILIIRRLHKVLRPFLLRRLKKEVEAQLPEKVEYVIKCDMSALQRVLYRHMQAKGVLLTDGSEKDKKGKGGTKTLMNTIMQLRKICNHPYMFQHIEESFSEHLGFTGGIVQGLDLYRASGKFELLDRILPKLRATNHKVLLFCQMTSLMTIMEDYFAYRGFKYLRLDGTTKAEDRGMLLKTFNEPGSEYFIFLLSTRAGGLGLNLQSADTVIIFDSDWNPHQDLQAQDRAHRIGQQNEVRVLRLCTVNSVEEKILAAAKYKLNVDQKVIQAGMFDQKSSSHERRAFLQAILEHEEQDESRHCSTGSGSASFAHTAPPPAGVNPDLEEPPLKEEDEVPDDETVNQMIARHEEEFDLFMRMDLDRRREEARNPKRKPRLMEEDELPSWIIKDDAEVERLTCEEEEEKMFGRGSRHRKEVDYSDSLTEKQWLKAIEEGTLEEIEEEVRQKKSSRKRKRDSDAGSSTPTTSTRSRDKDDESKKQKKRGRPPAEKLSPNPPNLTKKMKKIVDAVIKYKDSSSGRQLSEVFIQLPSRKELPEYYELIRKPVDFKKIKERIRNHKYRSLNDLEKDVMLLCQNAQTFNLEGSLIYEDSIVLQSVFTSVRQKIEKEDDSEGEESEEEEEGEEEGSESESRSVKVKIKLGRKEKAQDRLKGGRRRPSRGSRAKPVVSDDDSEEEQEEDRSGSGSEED
Assay: Cellular degradation assay, SMARCA4 (Table 1)
Format: cell-based
property measured: DC50 (nM)
Just the number please, in nM, no unit attached.

Task: If you can, please state the reported DC50 value of O=C1CC[C@@H](c2ccc(N3CCN(CC4=NO[C@@H]5CN(C(=O)C6(c7ccccc7)CCN(c7cnnc(-c8ccccc8O)c7)CC6)C[C@H]45)CC3)cc2)C(=O)N1 (racemic) .
Output: 1000

Task: If you can, please state the reported DC50 value of O=C1CC[C@H](c2ccc(N3CCC(CN4CCC(NC(=O)C5(c6ccccc6)CCN(c6cnnc(-c7ccccc7O)c6)CC5)CC45CCC5)CC3)cc2)C(=O)N1 (some centres unmarked) .
Output: 79.3

Task: If you can, please state the reported DC50 value of Cn1c(=O)n([C@H]2CCC(=O)NC2=O)c2cccc(N3CCC(C(=O)N4C[C@@H]5[C@H](C4)[C@H]5C(=O)NCC4(c5ccccc5)CCN(c5cnnc(-c6ccccc6O)c5)CC4)CC3)c21 (racemic) .
Output: 25.9

Task: If you can, please state the reported DC50 value of O=C1CC[C@H](c2ccc(N3CCC(CNC4CC5CCCC(C4)C5NC(=O)C4(c5ccccc5)CCN(c5cnnc(-c6ccccc6O)c5)CC4)CC3)cc2)C(=O)N1 (some centres unmarked) .
Output: 172

Task: If you can, please state the reported DC50 value of O=C1CC[C@H](c2ccc(N3CCC(CCN4CC5CCC(C4)C5C(=O)NCC4(c5ccccc5)CCN(c5cnnc(-c6ccccc6O)c5)CC4)CC3)cc2)C(=O)N1 (mixture of isomers) .
Output: 13.4

The reported measurements were obtained from patent US20250051344A1.
